assay_target: recombinant human TFPI (tissue factor pathway inhibitor) (human, UniProt P10646 29-304)
protocol_notes: cell-based or functional assay
Please use YES for FXa assay OD, 2.5 nM Ab, 10 nM TFPI under 0.05 and NO for everything else, ties included.

{"columns": ["binder", "class_assignment"],
 "data": [
  ["clone 4208 (antibody, V domains shown) VH: EVQLVESGGGLVKSGGSLRLSCAASGFTFSSYAMSWVRQAPGKGLEWVGTITTGGSYTYYADSVQGRFTISRDNAKNSLYLQMNSLRAEDTAVYYCARQDGNFLMDYWGQGTLVTVSS VL: DVVMTQTPLSLPVTLGQPASISCKSSQSLLDTDGKTYLNWLQQRPGQSPKRLIYLVSKLDSGVPDRFTGSGSGTDFTLKISRVEAEDVGVYYCWQGTHFPFTFGQGTKVEIKR", "YES"],
  ["clone 4206 (antibody, V domains shown) VH: EVQLVESGGGLVKPGGSLRLSCAASGFTFSSYAMNWVRQAPGKGLEWVSTITTGGSHTYYADSVEGRFTISRDNAKNSLYLQMDSLRAEDTAVYYCARQDGNFLMDYWGQGTLVTVSS VL: DVVMTQTPLSLPVTLGQPASISCKSSQSLLDVDGKTYLNWLQQRPGQSPKRLIYLVSKLDSGVPDRFTGSGSGTDFTLKISRVEAEDVGVYYCWQGTHLPFTFGQGTKVEIKR", "YES"],
  ["clone A67 (antibody, V domains shown) VH: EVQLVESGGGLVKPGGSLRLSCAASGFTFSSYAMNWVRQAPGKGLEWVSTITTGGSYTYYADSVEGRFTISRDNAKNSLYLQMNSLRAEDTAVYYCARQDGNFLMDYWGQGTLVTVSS VL: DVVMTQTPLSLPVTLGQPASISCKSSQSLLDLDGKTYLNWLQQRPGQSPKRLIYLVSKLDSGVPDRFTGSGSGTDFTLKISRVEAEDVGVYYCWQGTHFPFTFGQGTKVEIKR", "NO"],
  ["clone 3241 (antibody, V domains shown, scFv on yeast at selection; human IgG4/kappa IgG as purified; also called No. 3241 antibody) VH: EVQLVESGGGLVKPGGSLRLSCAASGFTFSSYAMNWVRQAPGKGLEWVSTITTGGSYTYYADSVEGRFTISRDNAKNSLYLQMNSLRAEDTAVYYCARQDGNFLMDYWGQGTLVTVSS VL: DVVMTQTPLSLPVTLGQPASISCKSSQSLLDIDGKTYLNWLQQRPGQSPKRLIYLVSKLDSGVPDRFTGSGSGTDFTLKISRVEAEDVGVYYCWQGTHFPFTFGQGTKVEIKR", "NO"]
]}

Next:
Task: Consider clone 1023 (antibody, V domains shown, scFv on yeast at selection; human IgG4/kappa IgG as purified) VH: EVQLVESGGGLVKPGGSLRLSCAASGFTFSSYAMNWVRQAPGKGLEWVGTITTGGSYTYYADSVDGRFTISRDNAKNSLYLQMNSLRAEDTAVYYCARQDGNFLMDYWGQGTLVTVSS VL: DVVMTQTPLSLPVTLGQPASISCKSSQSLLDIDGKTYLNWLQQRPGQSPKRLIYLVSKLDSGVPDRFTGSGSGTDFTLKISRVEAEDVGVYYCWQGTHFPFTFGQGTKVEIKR . Does its FXa assay OD, 2.5 nM Ab, 10 nM TFPI lie strictly below 0.05?
Result: NO
